Can you tell me Internalization %, MDA-MB-231, 0.25 µg/ml, 4 h for the items I'm about to list?
Target: T1, human Trop-2 expressed on cell surface (human, UniProt P09758 27-323)
T1 sequence (looked up): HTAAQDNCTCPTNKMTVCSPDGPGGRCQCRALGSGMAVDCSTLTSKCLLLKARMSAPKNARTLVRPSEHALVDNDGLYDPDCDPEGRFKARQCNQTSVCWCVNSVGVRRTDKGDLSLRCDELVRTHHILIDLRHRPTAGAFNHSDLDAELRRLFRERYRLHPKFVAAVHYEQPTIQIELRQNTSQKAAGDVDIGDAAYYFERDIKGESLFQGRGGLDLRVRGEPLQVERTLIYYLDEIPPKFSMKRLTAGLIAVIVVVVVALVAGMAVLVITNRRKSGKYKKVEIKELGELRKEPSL
Test: cell-based or functional assay
Give the value, in units of %, as a plain number.

10A9 (antibody, V domains shown, Rabbit-derived clone; LEM construct: VH + rabbit IgG CH1 + human IgG1 CH2-CH3) VH: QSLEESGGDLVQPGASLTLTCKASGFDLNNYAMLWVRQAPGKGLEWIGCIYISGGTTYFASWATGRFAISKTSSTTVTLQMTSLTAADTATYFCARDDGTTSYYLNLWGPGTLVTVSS VL: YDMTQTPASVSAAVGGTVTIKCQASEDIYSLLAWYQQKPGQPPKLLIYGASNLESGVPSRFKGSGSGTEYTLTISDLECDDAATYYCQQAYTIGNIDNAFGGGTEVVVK yielded Internalization %, MDA-MB-231, 0.25 µg/ml, 4 h of 57

Entry 9D7-2 (antibody, V domains shown) VH: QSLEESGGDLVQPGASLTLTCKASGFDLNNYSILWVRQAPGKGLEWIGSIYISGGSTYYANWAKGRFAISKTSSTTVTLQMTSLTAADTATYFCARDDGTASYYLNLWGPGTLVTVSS VL: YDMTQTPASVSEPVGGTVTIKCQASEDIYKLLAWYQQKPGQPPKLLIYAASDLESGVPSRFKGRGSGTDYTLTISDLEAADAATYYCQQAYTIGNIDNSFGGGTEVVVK , Internalization %, MDA-MB-231, 0.25 µg/ml, 4 h reported as 63

Record 5D4-2 (antibody, V domains shown) VH: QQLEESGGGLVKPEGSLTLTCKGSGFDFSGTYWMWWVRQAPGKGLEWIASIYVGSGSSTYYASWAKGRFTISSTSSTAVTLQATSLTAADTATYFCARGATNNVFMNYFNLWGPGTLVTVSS VL: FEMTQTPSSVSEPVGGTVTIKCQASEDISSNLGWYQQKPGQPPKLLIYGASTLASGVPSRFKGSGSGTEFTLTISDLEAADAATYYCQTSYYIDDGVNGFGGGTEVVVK , field Internalization %, MDA-MB-231, 0.25 µg/ml, 4 h: 61
